What nuclei count was measured for each of the following?
experiment: reduction of polyQ htt aggregates in cells – imaging, exon1htt(103Q)mCFP cells, high-content imaging, primary screen (AID 483); conditions: exon1htt(103Q)mCFP cell line, aggregate imaging, at 2 µM; measured here: cell count, toxicity;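 note: compound exposure lasted 3 days before fixation; percent of the per-plate median nuclei count of sample wells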
Provide the reading as a plain figure in %.

For the compound shown here, O=C(Cn1nnc(-c2ccncc2)n1)Nc1ccc2c(c1)CCC2 , give the reported nuclei count.
89.1

Entry O=c1[nH]c2ccccc2n1CCCN1CCN(C(c2ccccc2)c2ccccc2)CC1 has what nuclei count?
107

Item under review: O=C(Cn1cnc2c(nnn2-c2ccc(F)cc2)c1=O)NCc1ccco1 . Reported nuclei count?
78.6

Please look up its nuclei count: CCn1nc(C(=O)OCC(=O)c2cc(C)n(Cc3cccs3)c2C)c2ccccc2c1=O
90.2

For the compound O=c1[nH]c2ccc(S(=O)(=O)N3CCN(C4CCCCC4)CC3)cc2[nH]c1=O , what nuclei count is on record?
90.7

Using the record for CC1(C)CC(=O)C2=C(C1)N(Cc1ccco1)C(=O)C2(NC(=O)C1CCCCC1)C(F)(F)F (stereo unspecified) , report its nuclei count.
111

// nuclei count lookup, key: CC(C)=CCCC(C)NC(=O)NC1CCCCC1 (stereo unspecified)
91.1

Reported nuclei count, compound O=C(c1ccco1)N1CCN(CC(=O)N(C2CCCCC2)C2CCS(=O)(=O)C2)CC1 (stereo unspecified) : ____
75.5

State the recorded nuclei count for this entry: O=c1c(F)cn(C2CCCO2)c(=O)n1Cc1c(F)cccc1Cl (stereo unspecified)
103

Which nuclei count reading was recorded for the compound CC(=O)c1c(C)nc(C)nc1NC(=O)Cc1ccccc1 ?
79.9

Recorded nuclei count of CCNc1oc(COc2cccc(C)c2)nc1C#N , please.
114

GET /values?readout=nuclei count&item= CC1(C)S[C@@H]2[C@H](NC(=O)Cc3ccccc3)C(=O)N2[C@H]1C(=O)O
68.8

# lookup: nuclei count of Cc1ccc(OC(=O)CCc2c(C)nc3ncnn3c2C)cc1
130

Given the entry Fc1ccccc1-c1nc(-c2ccccc2)no1 , report its measured nuclei count.
103

Which nuclei count reading was recorded for the compound CCCCCc1c(O)c2ccccc2[nH]c1=O ?
109

Given the compound COCCn1c(SCC(=O)Nc2nnc(C)s2)nnc1-c1ccncc1 , what is its reported nuclei count?
99.2

Need nuclei count, item COCCN1CN(S(=O)(=O)c2ccccc2)c2nc3ccccc3nc21
94.4

What value of measured nuclei count is listed for O=C(Nc1ccc(N2CCOCC2)cc1)c1cccc(S(=O)(=O)N2CCCC2)c1 ?
106

Any idea what its nuclei count is? The compound is CCc1nnc(NC(=O)c2cccc(C(=O)Nc3nnc(CC)s3)n2)s1
120

Consider the compound shown here: Cc1ccc(S(=O)(=O)c2nc(-c3ccco3)oc2SCC(=O)NCC2CCCO2)cc1 (stereo unspecified) What is its recorded nuclei count?
104

nuclei count for Cc1cc(C)nc(SCc2nnc(SCc3ccccc3Cl)o2)n1 ?
110

Recorded nuclei count of O=C(O)c1cc(/C=N\O)ccc1OCc1ccccc1 , please.
112

Query: nuclei count; subject: CCSc1ncc(C#N)c(=O)[nH]1
89.7

Find the recorded nuclei count belonging to CCC(C)n1[nH]c(=O)c2c(C)cc(C)nc21 (stereo unspecified) and report it.
101

Tell me the measured nuclei count of CCOCCCNC(=O)C1CCN(C(=O)Nc2ccc(Cl)cc2)CC1 , please.
106

What value of nuclei count has been recorded for this entry: CN(C)C(=O)CN(c1ccc(F)c(Cl)c1)S(C)(=O)=O
104

# get_value(readout='nuclei count', item= CCOc1cc(C2c3c(n[nH]c3C)C(=O)N2c2ccc(Br)cc2)ccc1O (stereo unspecified) )
109

Need nuclei count, item CCCn1c(NCc2ccc3c(c2)OCO3)nc2ccccc21
97.6

Returns the measured nuclei count for the input compound. Input: Clc1ccc(-c2nnc3sc(-c4ccc(Br)o4)nn23)cc1
97.9

Record request: nuclei count value, item Cc1nc(NCCNC(=O)c2ccco2)c2c(C)c(C)sc2n1
136

Consider the compound c1ccc2c3nnc4n(c-3nc2c1)CCCS4 and give its measured nuclei count.
101

# query: nuclei count of entry O=C(c1ccccc1)c1ccc(N2CCOCC2)c(NC(=O)c2ccco2)c1
114

// returns reported nuclei count for input Cc1ccc(C)c(C(=O)NC2CC(C)(C)NC(C)(C)C2)c1
94

Field request: nuclei count | item: Cc1ccc(Cn2nnc3c(=O)[nH]c(C4CCN(C(=O)c5cccs5)CC4)nc32)cc1
106

For CCOc1ccc(NC(=O)CN(C)S(=O)(=O)c2cccs2)cc1 , what is its reported nuclei count?
104

Consider the compound O=C(CCn1c(=O)sc2ccccc21)NC1=NCCS1 and give its measured nuclei count.
102

Name the reported nuclei count value associated with the compound O=C1CC(C(=O)Nc2ccccc2)C2(CCCC2)O1 (stereo unspecified)
106

If you can, please state the reported nuclei count value of O=C(Nc1nc2ccc(S(=O)(=O)N3CCCC3)cc2s1)C1CCCO1 (stereo unspecified) .
55.6

Need nuclei count of COc1ccc(CC(NC(C)=O)C(=O)NC2CCN(C(=O)Nc3ccc(C#N)cc3)CC2)cc1OC (stereo unspecified) , thanks.
102

GET /values?readout=nuclei count&item= CC1Cc2ccccc2N1C(=O)Cc1cccs1 (stereo unspecified)
74.7

Which nuclei count value belongs to COc1ccc(CCNS(=O)(=O)c2ccc3c(c2)OCCO3)cc1 ?
102

// query nuclei count value for entry Cc1coc(NC(=O)CSc2nc(-c3ccncc3)cc(C(F)(F)F)c2C#N)n1
86.8

nuclei count lookup needed for CCOc1ccccc1NC(=O)C1CCCN(C(=O)NCc2ccccc2)C1 (stereo unspecified) , thanks.
114

Value lookup for nuclei count; key = COc1ccc(N2CCN(C(=O)CSc3nnc4n3C(C)(C)Cc3ccccc3-4)CC2)cc1
104

Give its nuclei count value. Item: Cc1cc(C(C)(C)C)cc(C)c1CC1=NCCN1
94.6

Value lookup for nuclei count; key = O=C(NCc1ccco1)C1CCN(C(=O)c2cc3sccc3n2Cc2ccc(F)cc2)CC1
122
